Target: human AMPK (full-length γ1, β1 and α1 subunits) (Homo sapiens (Human), UniProt Q13131+Q9Y478)
Sequence (Q13131 whole entry): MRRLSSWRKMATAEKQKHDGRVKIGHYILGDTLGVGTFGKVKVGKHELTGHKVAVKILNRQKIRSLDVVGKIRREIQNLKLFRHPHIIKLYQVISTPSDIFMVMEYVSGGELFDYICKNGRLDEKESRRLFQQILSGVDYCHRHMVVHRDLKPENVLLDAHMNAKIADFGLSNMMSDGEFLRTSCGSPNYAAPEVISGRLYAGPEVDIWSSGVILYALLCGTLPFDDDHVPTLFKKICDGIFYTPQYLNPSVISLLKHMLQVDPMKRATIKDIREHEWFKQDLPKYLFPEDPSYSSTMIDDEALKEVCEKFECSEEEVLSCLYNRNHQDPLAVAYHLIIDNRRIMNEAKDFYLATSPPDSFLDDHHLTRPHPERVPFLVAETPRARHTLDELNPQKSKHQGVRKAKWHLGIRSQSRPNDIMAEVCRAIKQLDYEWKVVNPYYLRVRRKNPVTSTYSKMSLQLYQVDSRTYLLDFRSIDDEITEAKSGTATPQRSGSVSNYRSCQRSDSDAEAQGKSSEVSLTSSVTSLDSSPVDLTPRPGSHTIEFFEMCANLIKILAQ
Sequence (Q9Y478 whole entry): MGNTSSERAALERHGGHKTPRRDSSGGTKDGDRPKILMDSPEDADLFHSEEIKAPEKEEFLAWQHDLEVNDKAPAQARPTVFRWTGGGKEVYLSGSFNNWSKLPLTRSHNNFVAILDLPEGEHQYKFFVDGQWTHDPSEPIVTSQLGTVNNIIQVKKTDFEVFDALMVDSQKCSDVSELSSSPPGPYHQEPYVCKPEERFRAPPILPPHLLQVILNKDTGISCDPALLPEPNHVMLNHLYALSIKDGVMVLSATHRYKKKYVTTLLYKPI
Sequence (P54619 whole entry partner): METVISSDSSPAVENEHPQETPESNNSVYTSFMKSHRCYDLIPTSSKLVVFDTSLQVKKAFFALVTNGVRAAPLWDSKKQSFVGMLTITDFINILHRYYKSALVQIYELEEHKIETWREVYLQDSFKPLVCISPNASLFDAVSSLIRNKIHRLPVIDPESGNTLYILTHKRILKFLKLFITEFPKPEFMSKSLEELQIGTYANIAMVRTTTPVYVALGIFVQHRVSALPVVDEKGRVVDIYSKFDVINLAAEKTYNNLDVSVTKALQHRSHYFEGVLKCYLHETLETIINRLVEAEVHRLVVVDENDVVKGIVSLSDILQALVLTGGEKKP
Experiment: AMPK in vitro biochemical assay (33P-based, SAMS peptide, PP2A dephosphorylation)
Settings: counts as % of positive control wells (enzyme, allosteric activator or AMP, PP2A and substrate); read-out: Maximum
READOUT: Emax (%)
Give bare numbers, in %.

>>> print(df.to_string())
                                   molecule  observed_value
0  O=C(O)c1c[nH]c2cc(Cl)c(-c3ccc(C4(CO)CCC4)cc3)cc12             107
1  CC(=O)N1CCC(c2ccc(-c3cc4c(C(=O)O)n[nH]c4cc3Cl)cc2)CC1             107
2  O=C(O)c1n[nH]c2cc(Cl)c(-c3ccc(CCO)cc3)cc12              94
3  O=C(O)c1c[nH]c2cc(Cl)c(-c3ccc(CC(=O)N4CCOCC4)cc3)cc12              89
4  COc1cc(-c2cc3c(C(=O)O)c[nH]c3cc2F)ccc1C1(O)CCC1              78

Each of the following entries comes with a recorded value; kindly state Emax for each.
1. O=C(O)c1c[nH]c2cc(Cl)c(-c3ccc(OCCO)c(F)c3)cc12
2. CC(C)(CO)c1ccc(-c2cc3c(C(=O)O)c[nH]c3cc2Cl)cc1F
3. CS(=O)(=O)N1CCC(c2ccc(-c3cc4c(C(=O)O)c[nH]c4cc3Cl)cc2)C1 (stereo not shown)
4. COc1ccc(-c2cc3c(C(=O)O)c[nH]c3cc2Cl)c(F)c1
5. O=C(O)c1c[nH]c2cc(Cl)c(-c3ccc([C@H]4C[C@H](O)C4)cc3)cc12

[97, 110, 114, 78, 117]

* * *

Target: human AMPK (full-length γ1, β1 and α1 subunits) (Homo sapiens (Human), UniProt Q13131+Q9Y478)
Assay: AMPK in vitro biochemical assay (33P-based, SAMS peptide, PP2A dephosphorylation)
Conditions: activation of phosphorylated AMPK; 33P-ATP, SAMS peptide, PP2A treatment; 4-parameter fit
For each of the molecules below, state its EC50.
One number for each entry, in nM.

>>> print(df.to_string())
                                   molecule  observed_value
0  CC(=O)N1CCC(c2ccc(-c3cc4c(C(=O)O)c[nH]c4cc3Cl)cc2)CC1             135
1  COc1cc(-c2cc3c(C(=O)O)c[nH]c3cc2Cl)ccc1C(C)(C)O             334
2  CCOc1ccc(-c2cc3c(C(=O)O)c[nH]c3cc2Cl)cc1             130
3  CCOc1ccc(-c2cc3c(C(=O)O)n[nH]c3cc2Cl)cc1            38.5
4  O=C(O)c1c[nH]c2cc(Cl)c(-c3ccc(C4CCCOC4)cc3)cc12 (stereo not shown)             171

For each of the molecules below, state EC50.
1. COc1cc(-c2cc3c(C(=O)O)c[nH]c3cc2Cl)ccc1OCCCO
2. O=C(O)c1c[nH]c2cc(F)c(-c3ccc(C4CCCO4)cc3)cc12 (single isomer, unassigned) [Example 150]

133
165

The measurements presented in this section are drawn from patent US9394285B2.
